This collection of values is drawn from ChEMBL document CHEMBL1201862.

tested on: HCT-116; assay: NCI tumour cell line growth inhibition, 48 h
The source made the active and inactive calls. No stated cut-off is given here; in the data, active = GI50 up to about 1.1 µM and inactive = higher.
readout_label: GI50

Field: example entries. Status: answers known.
>>> df
                                   molecule  readout_label                value
0  CN(CC#N)C1CCCC[C@H]1O (some centres not stated)           GI50  > 100 µM (inactive)
1  CCOC(OCC)c1ccc(/C=C/c2cc(OC)c(OC)c(OC)c2)cc1           GI50     17 µM (inactive)
2  Cn1cnc([N+](=O)[O-])c1Sc1nccn1-c1cccc2ccccc12           GI50   19.7 µM (inactive)
3       COc1ccc(C(=O)O)c(Cc2ccc3ccccc3c2)c1           GI50  > 100 µM (inactive)
4  COC(=O)C1Cc2ccc(O)c(O)c2CN1 (configuration not stated)           GI50   23.7 µM (inactive)

Input: Hello, I am looking for reported GI50 with HCT-116 for O=NC1c2cccc3cccc(c23)C1N=O (configuration not stated) . Could you help?
Output: 1.34 µM (inactive)

Input: Hello, I am looking for reported GI50 with HCT-116 for NC(Cc1ccc(N(CCCl)CCCl)cc1)C(=O)NC(CCC(=O)O)C(=O)O (configuration not stated) . Could you help?
Output: > 100 µM (inactive)

Input: Hello, I am looking for reported GI50 with HCT-116 for CC(C)(C)OC(=O)Cn1ncn(NC(=O)Cc2ccccc2)c1=S . Could you help?
Output: > 10 µM (inactive)

Input: Hello, I am looking for reported GI50 with HCT-116 for O=c1cc(O)c2c(O)cc(O)cc2o1 . Could you help?
Output: > 100 µM (inactive)

Input: Hello, I am looking for reported GI50 with HCT-116 for COc1ccc2c(c1)CC1c3c(ccc(OC)c3O)CC2N1C (configuration not stated) . Could you help?
Output: 19.6 µM (inactive)

Input: Hello, I am looking for reported GI50 with HCT-116 for COc1ccc2[nH]c3c4c(cc(-c5ccccc5)c3c2c1)C(=O)N(c1ccccc1)C4=O . Could you help?
Output: 29.2 µM (inactive)

Input: Hello, I am looking for reported GI50 with HCT-116 for CCN1CCN(c2nc3ccccc3nc2C(=O)c2ccc(OC)cc2)CC1 . Could you help?
Output: 6.07 µM (inactive)
